System: ATP;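 further: ATP exposure 15 min at 22 °C before imaging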
measurement_protocol: switch fluorescence ratio, 500 uM ATP over buffer (Cy3 cluster intensity, sum of 5 cycles each) (fold (ratio)); higher = stronger signal-on switching upon ATP binding; sequences stand for … in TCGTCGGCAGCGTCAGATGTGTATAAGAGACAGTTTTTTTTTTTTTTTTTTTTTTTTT…TC
study_conditions: aptamer strand: ATP DNA aptamer (quencher-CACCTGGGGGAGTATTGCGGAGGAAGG + anchor), 100 nM annealed; ATP concentration: 500 uM
Mark not met for switch fluorescence ratio values under 1, and met for everything at or above.

Past entries and their recorded results:
# construct_sequence, target_under_test, classification
measured = [
    ("ACATCTTTTA", "ATP", "met"),
    ("CGCCTGGCCG", "ATP", "not met"),
    ("TTGGAAGTAG", "ATP", "not met"),
]

Could you tell me if the measured switch fluorescence ratio of ACATCAATTC reaches 1 or more? met

Now the sequence AATATCGGGT not met

Now the sequence TCTGAGCGGC not met

* * *

Test system: ATP;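 further: ATP exposure 15 min at 22 °C before imaging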
measurement_protocol: switch fluorescence ratio, 500 uM ATP over buffer (Cy3 cluster intensity, sum of 5 cycles each) (fold (ratio)); higher = stronger signal-on switching upon ATP binding; sequences stand for … in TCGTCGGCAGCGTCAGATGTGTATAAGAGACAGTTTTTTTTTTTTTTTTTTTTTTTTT…TC
study_conditions: aptamer strand: ATP DNA aptamer (quencher-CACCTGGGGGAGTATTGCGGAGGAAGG + anchor), 100 nM annealed; ATP concentration: 500 uM
reported_property: switch fluorescence ratio
Quick one: just the number, no unit, thanks!

Look over these answered cases.
# construct_sequence, switch fluorescence ratio
measured = [
    ("ACGGGCTGCT", 1),
    ("TCATTTGATA", 1.03),
    ("ATGGGGATGA", 0.978),
]

What does the data say about its switch fluorescence ratio? Entry: AAGGAAATGG 1.01

Now the sequence TGTGTTGGGT 0.98

Now the sequence GCATGCGGGA 1.02

Now the sequence CGGGTCGGCA 1.03

Now the sequence AGAGAAGAGA 0.998

Now the sequence TATCTTTTTT 0.98

Now the sequence AGTATAGTGG 1.03

Now the sequence TGGTTCACGT 1

Now the sequence CAACGCATTT 2.36

Now the sequence ACTTTAGTTC 1.01

Now the sequence GTGTGGAGGT 0.964

Now the sequence TTAAGTGGGT 0.979

Now the sequence GCGGTTTCGT 0.983

Now the sequence AATAAAGGGG 1.19

Now the sequence TCGCGAAGGG 1.01

Now the sequence CACGGAGCAG 2.52

Now the sequence ATTTATACGG 1.02

* * *

# switch fluorescence ratio values compiled below
Test system: ATP;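 further: ATP exposure 15 min at 22 °C before imaging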
measurement_protocol: switch fluorescence ratio, 500 uM ATP over buffer (Cy3 cluster intensity, sum of 5 cycles each) (fold (ratio)); higher = stronger signal-on switching upon ATP binding; sequences stand for … in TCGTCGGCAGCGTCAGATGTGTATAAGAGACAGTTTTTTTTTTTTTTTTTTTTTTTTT…TC
study_conditions: aptamer strand: ATP DNA aptamer (quencher-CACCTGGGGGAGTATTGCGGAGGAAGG + anchor), 100 nM annealed; ATP concentration: 500 uM

Look over these answered cases.
# construct_sequence, switch fluorescence ratio
data = [
    ("ATGGTTGGTC", 0.97),
    ("TTTGGTCGGG", 1.01),
]

What does the data say about its switch fluorescence ratio? Entry: GAGAAAATAT 1

Now the sequence ATGTTGTCTC 1

Now the sequence AGCGCTGGCG 1

Now the sequence AAAACAGTT 1.05

Now the sequence ACATGTCTGA 0.999

Now the sequence GTAGTTTGAA 0.989

Now the sequence CTCTGATAGC 1.23

Now the sequence TCATGGTGAT 1.02

* * *

# switch fluorescence ratio values compiled below
Tested on: ATP;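 further: ATP exposure 15 min at 22 °C before imaging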
measurement_protocol: switch fluorescence ratio, 500 uM ATP over buffer (Cy3 cluster intensity, sum of 5 cycles each) (fold (ratio)); higher = stronger signal-on switching upon ATP binding; sequences stand for … in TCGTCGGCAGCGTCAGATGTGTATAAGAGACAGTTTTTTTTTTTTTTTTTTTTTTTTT…TC
study_conditions: aptamer strand: ATP DNA aptamer (quencher-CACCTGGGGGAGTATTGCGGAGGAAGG + anchor), 100 nM annealed; ATP concentration: 500 uM
Quick one: just the number, no unit, thanks!

# construct_sequence, switch fluorescence ratio
data = [
    ("TTGGGTGTTG", 0.997),
    ("CCGGCGGTTG", 1),
    ("CGGGTCCAGC", 1.01),
    ("GAGGGGGGGT", 1.08),
]

What does the data say about its switch fluorescence ratio? Entry: GTTGGGAGGG 0.985

Now the sequence AACGAAAAGT 0.996

Now the sequence TAAAAGAAGA 0.962

Now the sequence GTTATTAATT 0.983

Now the sequence TTGGAGGCGG 0.984

Now the sequence GTGTCTGAGC 0.966

Now the sequence AGGAAAAACT 1.02

Now the sequence CGGATGTTCA 1

Now the sequence GAAATAAGGT 0.99

Now the sequence TTAGGGATAT 1.22

Now the sequence ACCGGAGTCA 1.22

Now the sequence CTGTCGAGGC 0.977

Now the sequence TTTCGTGGGT 0.986

Now the sequence AAATGAAAAC 0.98

Now the sequence CAAACGGGGG 0.983

Now the sequence CCTGTTTGAG 1.04

* * *

# switch fluorescence ratio values compiled below
Test system: ATP;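 further: ATP exposure 15 min at 22 °C before imaging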
measurement_protocol: switch fluorescence ratio, 500 uM ATP over buffer (Cy3 cluster intensity, sum of 5 cycles each) (fold (ratio)); higher = stronger signal-on switching upon ATP binding; sequences stand for … in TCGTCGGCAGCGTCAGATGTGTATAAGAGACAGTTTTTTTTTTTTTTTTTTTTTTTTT…TC
study_conditions: aptamer strand: ATP DNA aptamer (quencher-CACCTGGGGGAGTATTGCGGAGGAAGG + anchor), 100 nM annealed; ATP concentration: 500 uM
Quick one: just the number, no unit, thanks!

Look over these answered cases.
# construct_sequence, switch fluorescence ratio
measured = [
    ("CTTTATAATC", 0.986),
    ("ATATGTCGCT", 1.01),
    ("CTGGTTGATT", 0.997),
    ("AAGAGGGGTA", 0.999),
    ("ATGAAGTCGC", 1.01),
    ("ACAACCGCTT", 1.13),
    ("GAATTTTTGG", 0.997),
    ("ATAATTGGGT", 0.993),
]

What does the data say about its switch fluorescence ratio? Entry: GGGTTGACTT 1.02

Now the sequence AAATTGGGG 0.958

* * *

Tested on: ATP;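 further: ATP exposure 15 min at 22 °C before imaging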
measurement_protocol: switch fluorescence ratio, 500 uM ATP over buffer (Cy3 cluster intensity, sum of 5 cycles each) (fold (ratio)); higher = stronger signal-on switching upon ATP binding; sequences stand for … in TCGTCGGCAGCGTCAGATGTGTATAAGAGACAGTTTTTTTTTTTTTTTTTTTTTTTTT…TC
study_conditions: aptamer strand: ATP DNA aptamer (quencher-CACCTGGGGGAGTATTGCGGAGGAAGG + anchor), 100 nM annealed; ATP concentration: 500 uM
Mark not satisfied for switch fluorescence ratio values under 1, and satisfied for everything at or above.

# construct_sequence, classification
data = [
    ("ACGGCCGGGG", "satisfied"),
]

Could you tell me if the measured switch fluorescence ratio of TTTTATTGCA reaches 1 or more? not satisfied

* * *

Test system: ATP;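 further: ATP exposure 15 min at 22 °C before imaging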
measurement_protocol: switch fluorescence ratio, 500 uM ATP over buffer (Cy3 cluster intensity, sum of 5 cycles each) (fold (ratio)); higher = stronger signal-on switching upon ATP binding; sequences stand for … in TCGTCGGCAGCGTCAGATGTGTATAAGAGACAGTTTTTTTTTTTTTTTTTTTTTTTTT…TC
study_conditions: aptamer strand: ATP DNA aptamer (quencher-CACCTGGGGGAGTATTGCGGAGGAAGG + anchor), 100 nM annealed; ATP concentration: 500 uM
reported_property: switch fluorescence ratio
Quick one: just the number, no unit, thanks!

# construct_sequence, reported_property, value_measured
records = [
    ("GTTTTTTGCC", "switch fluorescence ratio", 1),
]

# value lookup — system ATP, readout switch fluorescence ratio, item GGGTTAGGTA 0.96

Now the sequence TTTTTTCTGA 1.01

Now the sequence TCCTTTAATG 0.992

Now the sequence GGTTTACTG 1.03

Now the sequence TGGTGTATAG 1

Now the sequence CGGGGGCGGA 1.04

Now the sequence ATTAACTGGG 1.01

Now the sequence AGGAGCAAGG 1.26

Now the sequence AGTAGGGGGC 1

Now the sequence ACCGTGTCAA 1.01

Cited source: the supplement of paper PMC10126150
